From: patent US12503473B2

tested.system: MCT4 (Homo sapiens)
assay.method.text: Assay (a): lactate efflux from SK-Br-3 cells (lactate in media, 4 h)
Format: cell-based
Set-up: a natively glycolytic human breast adenocarcinoma line predominantly expressing MCT4; host or cells: SK-Br-3
experimental.parameters: mean of at least three repeats (Example 32, marked *, two repeats), read-out: MCT4 lactate efflux pIC50 (SKBR3) (converted)
readout.type: IC50 (nM)

> print(dat)
                  compound.structure.string  recorded.result
1  COCCN1CCN(Cc2ccc(-c3ncc(N4CC[C@@H](Cc5c(C)nc6nc(C)nn6c5C)C4)cn3)cc2)CC1            0.631
2  Cc1nc2nc(C)c(C[C@@H]3CCN(c4ccc(-c5ccc(CN6CCOCC6)nc5)cn4)C3)c(C)n2n1            0.316
3  Cc1nc2nc(C)c(C[C@@H]3CCN(c4cnc(-c5ccc(CN6CCOCC6)cc5)nc4)C3)c(C)n2n1              0.2
4  CCN1CCN(Cc2ccc(-c3cnc(N4CC[C@@H](Cc5c(C)nc6nc(C)nn6c5C)C4)cn3)cc2)CC1             3.98

* * *

Quick reference: IC50 of the listed items.
tested.system: MCT4 (Homo sapiens, UniProt O15427)
Sequence (O15427 whole entry): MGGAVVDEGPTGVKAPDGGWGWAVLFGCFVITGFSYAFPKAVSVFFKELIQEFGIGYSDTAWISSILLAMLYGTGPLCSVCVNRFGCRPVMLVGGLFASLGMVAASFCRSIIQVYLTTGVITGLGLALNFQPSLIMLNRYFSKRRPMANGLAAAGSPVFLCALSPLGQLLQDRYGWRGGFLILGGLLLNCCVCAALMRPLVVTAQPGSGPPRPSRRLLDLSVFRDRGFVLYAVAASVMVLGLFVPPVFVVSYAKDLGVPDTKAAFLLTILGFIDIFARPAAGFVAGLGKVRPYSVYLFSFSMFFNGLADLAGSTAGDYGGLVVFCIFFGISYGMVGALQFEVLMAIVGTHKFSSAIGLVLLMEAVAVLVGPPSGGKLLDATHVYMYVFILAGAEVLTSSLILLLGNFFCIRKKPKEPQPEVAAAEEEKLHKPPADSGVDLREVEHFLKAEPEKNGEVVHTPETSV
assay.method.text: Assay (d): FLIPR BCECF lactate influx in INS-1 MCT4 cells
Type: cell-based, rat
Parameters: expressed in transfected cells
experimental.parameters: INS-1 cells stably expressing human MCT4; mean of at least three repeats; read-out: MCT4 FLIPR pIC50 (INS-1) (converted)
readout.type: IC50 (nM)

> print(dat)
                                   molecule  readout.type  recorded.result
1  Cc1nc2nc(C)c(O[C@@H]3CCN(c4cnc(-c5ccc(C(C)N6CCOCC6)cc5)cn4)C3)c(C)n2n1 (single isomer, unassigned) [Example 87]          IC50             3.98
2  Cc1nc2nc(C)c(O[C@@H]3CCN(c4ccc(-c5ccc(CN6C7CCC6CN(C)C7)nn5)cc4)C3)c(C)n2n1 [Example 66]          IC50             25.1
3  Cc1nc2nc(C)c(O[C@@H]3CCN(c4ccc(-c5ccc(CN6CCCCCC6)nn5)cc4)C3)c(C)n2n1 [Example 85]          IC50             6.31
4  Cc1nc2nc(C)c(O[C@@H]3CCN(c4ccc(-c5cnc(CN6CCOCC6)nc5)cc4)C3)c(C)n2n1 [Example 69]          IC50             3.16
5  COCCN1CCN(Cc2ccc(-c3ccc(N4CC[C@@H](Oc5c(C)nc6nc(C)nn6c5C)C4)cc3)nn2)CC1 [Example 73]          IC50             31.6
6  Cc1nc2nc(C)c(O[C@@H]3CCN(c4cnc(-c5ccc([C@@H](C)N6CCOCC6)cc5)cn4)C3)c(C)n2n1 (single isomer, unassigned) [Example 86]          IC50             3.16

* * *

tested.system: MCT4 (Homo sapiens, UniProt O15427)
assay.method.text: cell-based
pIC50: −log10 of the molar value.
readout.type: pIC50

> print(dat)
                  compound.structure.string  readout.type  recorded.result
1  Cc1nc2nc(C)c(C[C@@H]3CCN(c4cnc(-c5ccc(CN6CCOCC6)cc5)cn4)C3)c(C)n2n1         pIC50             8.10
2  Cc1nc2nc(C)c(O[C@@H]3CCN(c4ccc(-c5cnc(CN6CCOCC6)nc5)cc4)C3)c(C)n2n1         pIC50             7.90
3  Cc1nc2nc(C)c(C[C@@H]3CCN(c4cnc(-c5ccc(CN6CCN(C)CC6)cc5)nc4)C3)c(C)n2n1         pIC50             7.40
4  Cc1nc2nc(C)c(C[C@@H]3CCN(c4ccc(-c5ccc(CN6CCN(C)CC6)cc5)nc4)C3)c(C)n2n1         pIC50             7.60
5  CCN1CCN(Cc2ccc(-c3cnc(N4CC[C@@H](Cc5c(C)nc6nc(C)nn6c5C)C4)cn3)cc2)CC1         pIC50             7.50
6  Cc1nc2nc(C)c(C[C@@H]3CCN(c4ccc(-c5ccc(CN6CCN(C)CC6)nc5)cn4)C3)c(C)n2n1         pIC50             7.40
7  COCCN1CCN(Cc2ccc(-c3ccc(N4CC[C@@H](Oc5c(C)nc6nc(C)nn6c5C)C4)cc3)nn2)CC1         pIC50             7.30
